B1: FAM189A2 (parent)
chain: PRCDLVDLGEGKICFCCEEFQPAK

# Variants of: B1
# testDetails: protein stability index of a GFP-peptide fusion (GPS, HEK-293T) (PSI 1-6); higher = more stable;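 note: lentivirally expressed fusions sorted by FACS into six bins by GFP to DsRed ratio, PSI derived from sequencing read proportions per bin multiplied by bin number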
# measurementParameters: c terminus: a fixed tail appended
Each entry below carries its reported protein stability index.
Just the number, please, no unit after it.

E10P	2.88

Quick one: protein stability index for `D4Y` ? 1.86

For `I13C` , what is its reported protein stability index? 3.38

Name the reported protein stability index value associated with the variant `Q21N` 3.14

Need protein stability index of `C14P` , thanks. 3.94

Name the recorded protein stability index for `E18I` . 2.63

Given `P1Y` , state its recorded protein stability index. 1.91
